Target: monkey CADM3 (cynomolgus monkey)
Sequence (Q8N126 25-398 S206N limits assumed, form in doubt): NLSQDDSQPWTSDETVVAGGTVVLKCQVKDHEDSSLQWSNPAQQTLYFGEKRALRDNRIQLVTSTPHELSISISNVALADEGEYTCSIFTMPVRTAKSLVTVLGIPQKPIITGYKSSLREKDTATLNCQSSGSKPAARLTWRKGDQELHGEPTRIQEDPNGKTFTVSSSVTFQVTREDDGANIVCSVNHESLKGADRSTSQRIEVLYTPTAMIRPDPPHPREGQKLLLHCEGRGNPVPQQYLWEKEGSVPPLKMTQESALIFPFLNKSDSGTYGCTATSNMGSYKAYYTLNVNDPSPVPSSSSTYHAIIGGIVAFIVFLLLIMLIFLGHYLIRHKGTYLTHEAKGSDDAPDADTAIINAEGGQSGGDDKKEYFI
Experiment: flow cytometry, 10 ug/mL, monkey CADM3/Expi293F vs parent Expi293F cells
property.label: Mean fluorescence intensity ratio
Just the number, please, no unit attached.

Examples from the recorded data:
>  <binder>
CADM3102 scFv-hG4PE (Fc fusion) VH: QMQLVQSGAEVKKPGSSVKVSCKASGGTFSSYAISWVRQAPGQGLEWMGGIIPMSGTANYAQKFQGRVTITADESTSTAYMELSSLRSEDTAVYYCARVEESGWYDHYHGMDVWGQGTTVTVSS VL: DVVMTQSPLSLPVTPGEPASISCTSSQSLLYSNGFNYLDWYLQKPGQSPQLLIYLGSNRASGVPDRFSGSGSGTDFTLKISRVEAEDVGVYYCMQALTTHPTFGGGTKVDIK

>  <Mean fluorescence intensity ratio>
51.5

$$$$
>  <binder>
iCADM3_3R1-L8 VHH-hG4PE(R409K) (Fc fusion, not shown: a dimerising Fc or GST) QVQLVESGGGLVQPGGSLRLSCAASGRTFSNYARGWFRQAPGKEREFVAAIDYSGGSTNYADSAKGRFTISRDNAKNTVYLQMNSLKPGDTAVYYCAAPASRRPSWDADGYDYWGQGTQVTVSS

>  <Mean fluorescence intensity ratio>
6.91

$$$$

Now turn to the next binder.
The binder anti-AVM antibody (antibody, V domains shown) VH: EVQLVESGGGLVQPGRSLKLSCAASGFTFSNYAMAWVRRAPTKGLEWVASISNGGGNTYYRDSVKGRFTISRDDAKNTLYLQMDSLRSEDTATYYCARHGNYIYYGSFFDYWGQGVMVTVSS VL: QFVLSQPNSVSTNLGSTVKLSCKRSTGNIGSNYVSWYQQHEGRSPTTMIYRDDKRPDGVPDRFSGSIDRSSDSALLTINNVQTEDEADYFCQSYSSGINIFGGGTKLTVLG showed Mean fluorescence intensity ratio equal to 1.02
